Target: KRAS (aa 1-169) G12C, C51S, C80L, C118S (Homo sapiens (Human), UniProt P01116, C118S/C51S/C80L/G12C)
Sequence (P01116 other isoform, or with tags, fused parts or gaps G12C/C51S/C80L/C118S): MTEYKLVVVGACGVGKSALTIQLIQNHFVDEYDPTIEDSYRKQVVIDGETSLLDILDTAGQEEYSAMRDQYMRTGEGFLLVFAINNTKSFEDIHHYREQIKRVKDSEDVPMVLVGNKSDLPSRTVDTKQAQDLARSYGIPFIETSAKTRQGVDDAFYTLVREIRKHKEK
Experiment: Biochemical functional assay: SOS1-mediated nucleotide exchange of GDP-loaded KRAS G12C, binding to GST-cRaf RBD, FRET readout
Conditions: 3 hrs pre-incubation with compound at 24° C., SOS1, GTPyS, inhibition of nucleotide exchange
Catalogue of compounds with associated pIC50
The quantity pIC50 is defined as the negative base-10 logarithm of the molar concentration.

The following compounds have reported results that may help.
compound	numeric-readout
C=C(F)C(=O)N1CCN(c2nc(N3CC(CC#N)(N(C)C)C3)nc3cc(-c4cccc5cccc(Cl)c45)c4c(c23)OCCC4)C[C@@H]1CC#N (single isomer, unassigned) [Compound B92]	6.42
C=C(F)C(=O)N1CCN(c2nc(OCC3C[C@@H](OC)CN3C)nc3cc(-c4cccc5cccc(Cl)c45)c4c(c23)OCCC4)C[C@@H]1CC#N (single isomer, unassigned) [Compound B94]	8.33
C=C(F)C(=O)N1CCN(c2nc(OC[C@@H]3C[C@@H](F)CN3C)nc3cc(-c4cccc5cccc(Cl)c45)c4c(c23)OCCC4)C[C@@H]1CC#N	7.55

Measured pIC50, C=CC(=O)N1CCN(c2nc(OCCN(C)C)nc3cc(-c4c(Cl)c(C)cc5[nH]ncc45)c4c(c23)OCCC4)C[C@@H]1CC#N : 8.10

Measured pIC50, C=C(F)C(=O)N1CCN(c2nc(OC[C@@H]3C[C@@H](OC)CN3C)nc3cc(-c4cccc5cccc(Cl)c45)c4ccoc4c23)C[C@@H]1CC#N : 7.80
